- TARGET_OR_SYSTEM: Voltage-gated potassium channel subunit beta-2 (Rattus norvegicus) (UniProt P62483)
- Sequence (P62483 whole entry, looked up): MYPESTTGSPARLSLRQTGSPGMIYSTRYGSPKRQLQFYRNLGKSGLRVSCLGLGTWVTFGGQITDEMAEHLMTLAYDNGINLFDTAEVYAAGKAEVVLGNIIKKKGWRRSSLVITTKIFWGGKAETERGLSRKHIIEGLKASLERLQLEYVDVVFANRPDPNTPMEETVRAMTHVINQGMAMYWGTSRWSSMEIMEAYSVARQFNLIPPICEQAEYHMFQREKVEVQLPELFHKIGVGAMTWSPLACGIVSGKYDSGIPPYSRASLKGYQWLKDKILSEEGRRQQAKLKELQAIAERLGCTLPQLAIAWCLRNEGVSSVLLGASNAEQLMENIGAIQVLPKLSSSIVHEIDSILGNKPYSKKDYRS
- PROTOCOL_DETAILS: KvBeta positive modulators, primary screen, biochemical, NADPH fluorescence (AID 623);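 also: fluorescence intensity change per second fitted from 20 to 320 s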
- EXPERIMENTAL_CONTEXT: Recombinant KvBeta, NADPH fluorescence decrease slope, 10 min; at 10 µM; active compounds read low
Recorded NADPH fluorescence slope, one value per entry.
No unit in the answer, please; the number alone is enough.

O=C(CCN1C(=O)COc2ccccc21)NCCCN1CCN(c2ccccc2F)CC1 ... -2.7e-05
COc1cccc(NC(=O)N2CCCC2C(=O)NC(C)C)c1 (stereo unspecified) ... -2.2e-05
Cc1ccc(-n2ncc3c(=O)n(CC(=O)NCc4ccco4)cnc32)cc1 ... -0.000156
Cc1cc(=O)n(CCC(=O)O)c2ccccc12 ... -8.8e-05
COCCCN1C(=O)C(=O)/C(=C(/O)c2ccc(OCC(C)C)cc2C)C1c1cccnc1 (stereo unspecified) ... 5.8e-06

# input for lookup
*Q* Please report the recorded NADPH fluorescence slope for CCOc1ccccc1NC(=O)NC1CCN(CC(=O)Nc2ccc3c(c2)OCCO3)CC1 .
*A* 4.9e-05

// data source = PubChem BioAssay
